Value source: the Immune Epitope Database (IEDB)

Target Of Assay: HLA-A*68:01
Experiment: IEDB peptide-MHC binding, purified MHC/competitive/radioactivity; bounds were set here for any values at or beyond the usual limits of such assays
Condition: source organism: Influenza A virus (A/Puerto Rico/8/1934(H1N1))
Readout Kind: IC50

Worked examples follow.
QUERY: For HLA-A*68:01, give IC50 of the listed sequence: SIIPSGPLK
RESULT: 108 nM

QUERY: Name the recorded IC50 of RTLDFHDSNVK , assay system HLA-A*68:01.
RESULT: 2290 nM

Okay, next one:
QUERY: Tell me IC50 of RVLSFIKGTK when tested on HLA-A*68:01.
RESULT: 471 nM

* * *

Target Of Assay: HLA-A*02:01
Experiment: IEDB peptide-MHC binding, purified MHC/competitive/radioactivity; bounds were set here for any values at or beyond the usual limits of such assays
Condition: source organism: Influenza A virus (A/Puerto Rico/8/1934(H1N1))
pIC50: −log10 of the molar value.
Mark False for pIC50 values under 7, and True for everything at or above.

Examples from the recorded data:
QUERY: Has SLLTEVETYV a recorded pIC50 greater than or equal to 7?
RESULT: True

QUERY: Determine whether measured pIC50 meets or exceeds 7 for KLESMGIYQI
RESULT: False

QUERY: Is reported pIC50 greater than or equal to 7 here: LLLEVEQEI
RESULT: False

QUERY: In plain terms: is recorded pIC50 at least 7 for MLSTVLGVSI ?
RESULT: False

QUERY: Quick check: does FLWHVRKRV have pIC50 greater than or equal to 7?
RESULT: False

Now take the following sequence into account.
QUERY: Given RMQFSSFTV , state whether its pIC50 is at least 7.
RESULT: True

* * *

Target Of Assay: HLA-A*68:01
Experiment: IEDB peptide-MHC binding, purified MHC/competitive/radioactivity; filed as Kd, often an IC50 or EC50 that approximates it; bounds were set here for any values at or beyond the usual limits of such assays
Condition: source organism: Influenza A virus (A/Puerto Rico/8/1934(H1N1))
Readout Kind: pKd
Give bare numbers, as −log10 of the molar value.

QUERY: Dear colleague, please send me the reported pKd for GIAPLQLGK when you can.
RESULT: 5.93

* * *

Target Of Assay: HLA-A*02:01
Experiment: IEDB peptide-MHC binding, purified MHC/competitive/radioactivity; bounds were set here for any values at or beyond the usual limits of such assays
Condition: source organism: Influenza A virus (A/Puerto Rico/8/1934(H1N1))
pIC50: −log10 of the molar value.
Please use Fulfilled whenever pIC50 is not below 7, and Not fulfilled whenever it is.

Solved entries (count: 4):
QUERY: Please tell me: is the sequence ALKMTMASV at or over 7 in terms of pIC50?
RESULT: Not fulfilled

QUERY: Say whether GMFNMLSTV shows pIC50 of 7 or more.
RESULT: Fulfilled

QUERY: Is reported pIC50 greater than or equal to 7 here: LMDALKLSI
RESULT: Fulfilled

QUERY: Entry LLTEVETPI : is its pIC50 no less than 7?
RESULT: Fulfilled

Now look at this one.
QUERY: Exam item: decide whether the reported pIC50 for VLLVSLGAI is at least 7.
RESULT: Not fulfilled

* * *

Target Of Assay: HLA-A*02:01
Experiment: IEDB peptide-MHC binding, purified MHC/competitive/radioactivity; bounds were set here for any values at or beyond the usual limits of such assays
Condition: source organism: Influenza A virus (A/Puerto Rico/8/1934(H1N1))
Could you please report measured pIC50 for the items listed next?
Answers are plain numbers, as −log10 of the molar value.

Worked examples, 3 sequences total:
QUERY: Recall the reported pIC50 of NLYNIRNLHI when tested on HLA-A*02:01.
RESULT: 7.21

QUERY: Tell me its pIC50 on HLA-A*02:01: SMIEAESSV
RESULT: 6.80

QUERY: # return pIC50 for KMNIQFTAV , test system: HLA-A*02:01
RESULT: 6.82

List pIC50 for every entry below, keeping the order given.
1. WMMAMKYPI
2. CLLQSLQQI
3. SLPFQNIHPV
4. GMGWLTIGI

RESULT:
7.14
6.80
7.02
6.88
